We begin with a simple list: items and their reported stoichiometry N.
Biological target: the molecule itself
Test: SEC

>  <protein>
D2 domain of EccCb1 (35-316 residues), wild type (domain or fragment) NPVPLNELIARDRRQPLRFALGIMDEPRRHLQDVWGVDVSGAGGNIGIGGAPQTGKSTLLQTMVMSAAATHSPRNVQFYCIDLGGGGLIYLENLPHVGGVANRSEPDKVNRVVAEMQAVMRQRETTFKEHRVGSIGMYRQLRDDPSQPVASDPYGDVFLIIDGWPGFVGEFPDLEGQVQDLAAQGLAFGVHVIISTPRWTELKSRVRDYLGTKIEFRLGDVNETQIDRITREIPANRPGRAVSMEKHHLMIGVPRFDGVHSADNLVEAITAGVTQIASQHTE

>  <stoichiometry N>
2

$$$$
>  <protein>
D2 domain of EccCb1 (35-316 residues), S91A mutant (domain or fragment) NPVPLNELIARDRRQPLRFALGIMDEPRRHLQDVWGVDVSGAGGNIGIGGAPQTGKATLLQTMVMSAAATHSPRNVQFYCIDLGGGGLIYLENLPHVGGVANRSEPDKVNRVVAEMQAVMRQRETTFKEHRVGSIGMYRQLRDDPSQPVASDPYGDVFLIIDGWPGFVGEFPDLEGQVQDLAAQGLAFGVHVIISTPRWTELKSRVRDYLGTKIEFRLGDVNETQIDRITREIPANRPGRAVSMEKHHLMIGVPRFDGVHSADNLVEAITAGVTQIASQHTE

>  <stoichiometry N>
2

$$$$
>  <protein>
D3 domain of EccCb1 (349-580 residues), wild type (domain or fragment) EIPIGLRETDLTPAHCHMHTNPHLLIFGAAKSGKTTIAHAIARAICARNSPQQVRFMLADYRSGLLDAVPDTHLLGAGAINRNSASLDEAVQALAVNLKKRLPPTDLTTAQLRSRSWWSGFDVVLLVDDWHMIVGAAGGMPPMAPLAPLLPAAADIGLHIIVTCQMSQAYKATMDKFVGAAFGSGAPTMFLSGEKQEFPSSEFKVKRRPPGQAFLVSPDGKEVIQAPYIEPP

>  <stoichiometry N>
2

$$$$
>  <protein>
D2 domain of EccCb1 (35-316 residues), Q87A mutant (domain or fragment) NPVPLNELIARDRRQPLRFALGIMDEPRRHLQDVWGVDVSGAGGNIGIGGAPATGKSTLLQTMVMSAAATHSPRNVQFYCIDLGGGGLIYLENLPHVGGVANRSEPDKVNRVVAEMQAVMRQRETTFKEHRVGSIGMYRQLRDDPSQPVASDPYGDVFLIIDGWPGFVGEFPDLEGQVQDLAAQGLAFGVHVIISTPRWTELKSRVRDYLGTKIEFRLGDVNETQIDRITREIPANRPGRAVSMEKHHLMIGVPRFDGVHSADNLVEAITAGVTQIASQHTE

>  <stoichiometry N>
2

$$$$
